- System: SN12C renal
- method_notes: NCI-60 one-dose screen, 48 h
- particulars: 10 µM unless noted
About 83,000 compounds went through this panel and 20% of them were active in at least one assay; those are over-represented in the sample as a whole. Active and inactive are the calls of the source. The calls were made as follows: active = growth percent below 10; inactive = the rest.
Would you mind answering with one of these outcomes? active, inactive

[
  {
    "compound": "COC(=O)[C@]1(C)CC[C@]2(C)CC[C@]3(C)C(=CC(=O)[C@@H]4[C@@]5(C)CCC(=O)NC(C)(C)[C@@H]5CC[C@]43C)[C@@H]2C1",
    "target_system": "SN12C renal",
    "class_name": "active"
  },
  {
    "compound": "CC1(C)C(=O)/C(=C\\c2ccco2)C[C@]2(C)[C@H]3CC=C4[C@@H]5C[C@](C)(C(=O)O)CC[C@]5(C)CC[C@@]4(C)[C@]3(C)CC[C@@H]12",
    "target_system": "SN12C renal",
    "class_name": "active"
  },
  {
    "compound": "CC[C@@](C)(NC(=O)[C@H](C)NC(=O)CCNC(=O)C(C)(C)NC(=O)[C@H](C)NC(=O)[C@@H]1CCCN1C(=O)[C@@](C)(CC)NC(=O)[C@H](Cc1ccccc1)NC(=O)C1CCCN1C(=O)C(C)(C)NC(=O)C1CCCN1C(=O)C(C)(C)NC(C)=O)C(=O)NCCC(=O)N[C@@H](CC(C)C)C(=O)NC(C)(C)C(=O)NCCC(=O)N[C@@H](CC(C)C)C(=O)NC(C)(C)C(=O)NC(C)(C)C(=O)N[C@@H](CC(C)C)C(=O)NCCC(=O)NCO (stereo not given in full)",
    "target_system": "SN12C renal",
    "class_name": "active"
  },
  {
    "compound": "CC(C)[C@H]1CCC2=C3CC[C@]45OC(=O)[C@@]6(CCC(C)(C)C[C@H]64)CC[C@@]5(C)[C@]3(C)CC[C@@]21C",
    "target_system": "SN12C renal",
    "class_name": "inactive"
  },
  {
    "compound": "OC(c1ccc(Cl)cc1)(c1ccc(Cl)cc1)C(O)(c1ccc(Cl)cc1)c1ccc(Cl)cc1",
    "target_system": "SN12C renal",
    "class_name": "inactive"
  }
]

Hello, I am checking results. What call was entered for `COc1c(C(C)=O)c(OCCCCOc2c(C(C)=O)c(OC)c3ccoc3c2OC)c(OC)c2occc12` ?
inactive

Record: O=C(C[n+]1ccn(CC(OCc2ccc(Cl)cc2Cl)c2ccc(Cl)cc2Cl)c1)c1ccc(F)cc1 (stereo not given)
active
